- protocol.notes: Volume of distribution in dog administered as methocel suspension
- Type: ADME, organism-based, Canis lupus familiaris
- condition.info: in vivo
measurement.type: Vd (L/kg)
Report only the number, with the unit L/kg understood.

Past entries and their recorded results:
CC(C)CCN1C(=O)C(NC(=O)Nc2ccccc2)C(=O)N(CCN2CCOCC2)c2ccccc21 (racemic) ... 1
O=C(Nc1ccccc1)NC1C(=O)N(CCN2CCOCC2)c2ccccc2N(CC23CC4CC(CC(C4)C2)C3)C1=O (racemic) ... 4.8

Next up:
Exam item: Please supply the value of reported Vd for the item CC(C)CCN1C(=O)C(NC(=O)Nc2ccccc2)C(=O)N(CCN(C)C)c2ccccc21 (racemic)
Marked response: 2.5

====

Overview of reported Ki selectivity ratio (CCK1 Ki / CCK2 Ki) across a group of compounds:
- protocol.notes: Selectivity ratio of pKi for guinea pig brain CCK2 receptor to pKi for rat pancreas CCK1
Please give only the number in your answer, with no unit.

Worked cases, answers included:
CN(C)CCCN1C(=O)C(NC(=O)Nc2ccccc2)C(=O)N(CC23CC4CC(CC(C4)C2)C3)c2ccccc21 (racemic) ... 5620
Cc1cccc(NC(=O)NC2C(=O)N(CCC(C)C)c3ccccc3N(CCN3CCOCC3)C2=O)c1 (racemic) ... 372
CN(C)CCN1C(=O)C(NC(=O)Nc2ccccc2)C(=O)N(CC23CC4CC(CC(C4)C2)C3)c2ccccc21 (racemic) ... 3240
COc1ccc(NC(=O)NC2C(=O)N(CCC(C)C)c3ccccc3N(CCN(C)C)C2=O)cc1 (racemic) ... 1550
CCN(CC)CCN1C(=O)C(NC(=O)Nc2ccccc2)C(=O)N(CC2CCCCC2)c2ccccc21 (single isomer, unassigned; isomer 1) ... 457
CCN(CC)CCN1C(=O)C(NC(=O)Nc2ccccc2)C(=O)N(CC2CCCCC2)c2ccccc21 (stereo in doubt) ... 1180

Exam item: Find the measured Ki selectivity ratio (CCK1 Ki / CCK2 Ki) of Cc1cccc(Cl)c1NC(=O)NC1C(=O)N(CCC(C)C)c2ccccc2N(CCN2CCOCC2)C1=O (racemic) and report it.
Marked response: 44

Exam item: Please report the measured Ki selectivity ratio (CCK1 Ki / CCK2 Ki) for COc1ccc(NC(=O)NC2C(=O)N(CCC(C)C)c3ccccc3N(CCN3CCOCC3)C2=O)c(C)c1 (racemic)
Marked response: 229

Exam item: State its Ki selectivity ratio (CCK1 Ki / CCK2 Ki): CCN(CC)CCN1C(=O)C(NC(=O)Nc2ccccc2)C(=O)N(CCC(C)C)c2ccccc21 (racemic)
Marked response: 2570

Exam item: Return value of Ki selectivity ratio (CCK1 Ki / CCK2 Ki) for input O=C(Nc1ccccc1)NC1C(=O)N(CCN2CCOCC2)c2ccccc2N(CC23CC4CC(CC(C4)C2)C3)C1=O (single isomer, unassigned; (-)) , no commentary.
Marked response: 8910

Exam item: Give me measured Ki selectivity ratio (CCK1 Ki / CCK2 Ki), please, for this compound: CCN(CC)CCN1C(=O)C(NC(=O)Nc2ccccc2)C(=O)N(CC2CCCCC2)c2ccccc21 (racemic)
Marked response: 1480

Exam item: State its Ki selectivity ratio (CCK1 Ki / CCK2 Ki): O=C(Nc1ccccc1)NC1C(=O)N(CCN2CCOCC2)c2ccccc2N(CC23CC4CC(CC(C4)C2)C3)C1=O (racemic)
Marked response: 3550

Exam item: Check the records and state Ki selectivity ratio (CCK1 Ki / CCK2 Ki) for CC(C)CCN1C(=O)C(NC(=O)Nc2ccccc2)C(=O)N(CCN(C)C)c2ccccc21 (racemic)
Marked response: 759

Exam item: For the compound O=C(Nc1ccccc1)NC1C(=O)N(CCN2CCOCC2)c2cc(F)ccc2N(CC23CC4CC(CC(C4)C2)C3)C1=O (racemic) , report Ki selectivity ratio (CCK1 Ki / CCK2 Ki).
Marked response: 603

Exam item: Please list Ki selectivity ratio (CCK1 Ki / CCK2 Ki) recorded for the compound O=C(Nc1ccccc1)NC1C(=O)N(CCN2CCOCC2)c2ccccc2N(CC2CCCCC2)C1=O (racemic)
Marked response: 126
